These measurements were taken from patent US9029508.

Task for the reader: assign each of the following binders its reported pEC50.
Biological target: IGF2 (human, UniProt P01344)
Test: ELISA
Give bare numbers, as −log10 of the molar value.

Some solved entries appear below for comparison.
[[record]]
binder = "DVD030 IGF1,2 arm (antibody, V domains shown, DVD-Ig outer) VH: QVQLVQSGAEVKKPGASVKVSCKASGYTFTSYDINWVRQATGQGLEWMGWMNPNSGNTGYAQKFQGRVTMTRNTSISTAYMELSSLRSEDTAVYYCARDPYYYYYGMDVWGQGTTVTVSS VL: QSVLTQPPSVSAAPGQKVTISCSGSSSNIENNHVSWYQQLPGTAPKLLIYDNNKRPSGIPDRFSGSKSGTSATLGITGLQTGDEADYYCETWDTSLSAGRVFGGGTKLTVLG"
assayreadout = "pEC50"
valuemeasured = 8.26

[[record]]
binder = "DVD041 IGF1,2 arm (antibody, V domains shown, DVD-Ig inner) VH: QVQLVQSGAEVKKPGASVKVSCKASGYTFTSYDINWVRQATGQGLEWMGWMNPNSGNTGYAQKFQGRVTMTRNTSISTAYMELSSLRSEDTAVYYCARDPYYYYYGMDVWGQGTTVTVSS VL: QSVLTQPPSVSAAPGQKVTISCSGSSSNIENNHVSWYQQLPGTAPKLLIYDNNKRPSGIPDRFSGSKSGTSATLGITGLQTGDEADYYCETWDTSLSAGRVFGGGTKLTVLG"
assayreadout = "pEC50"
valuemeasured = 5.13


Now look at this one.
What measured pEC50 goes with DVD029 IGF1,2 arm (antibody, V domains shown, DVD-Ig inner) VH: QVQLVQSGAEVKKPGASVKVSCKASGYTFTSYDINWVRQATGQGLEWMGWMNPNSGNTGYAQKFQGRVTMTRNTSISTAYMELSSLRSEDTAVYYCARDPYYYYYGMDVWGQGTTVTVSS VL: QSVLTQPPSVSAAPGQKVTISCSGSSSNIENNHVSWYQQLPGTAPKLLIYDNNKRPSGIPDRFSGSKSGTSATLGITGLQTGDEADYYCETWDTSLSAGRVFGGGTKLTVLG ?
6.69
